ASSAY INFO: Blocking experiments: inhibition of radiotracer accumulation in the rat by coadministered compound
Assay type: in vivo, rat (male Wistar)
CONDITION INFO: rat, muscle, iv, rat, iv, 60 min, + (-)-7 HCl 0.53 mg/kg; read-out: radioactivity in muscle
REPORTED ENDPOINT: tissue uptake at 1 h (%ID/g)
Express your answer in %ID/g, writing the number without its unit.

In: Item under review: OC(Cc1ccc([125I])cc1)CN1CCC(c2ccccc2)CC1 (single isomer, unassigned; (-)) [(-)-4-[^125 l]HIPP] . Reported tissue uptake at 1 h?
Out: 0.08

###

Assignment: determine reported tissue uptake at 3 h for the given compounds.
ASSAY INFO: Tissue distribution (biodistribution) of radioiodinated compound in the rat
CONDITION INFO: rat, heart, iv, radioactivity in heart, 180 min
Express your answer in %ID/g, writing the number without its unit.

In: Item under review: OC(Cc1ccc([125I])cc1)CN1CCC(c2ccccc2)CC1 (single isomer, unassigned; (+)) [(+)-4-[^125 l]HIPP] . Reported tissue uptake at 3 h?
Out: 0.84

In: Item under review: OC(Cc1cccc([125I])c1)CN1CCC(c2ccccc2)CC1 (single isomer, unassigned; (+)) [(+)-[^125 l]12] . Reported tissue uptake at 3 h?
Out: 0.16

###

Tested on: vesamicol receptor
ASSAY INFO: Blocking experiments: inhibition of radiotracer accumulation in the rat by coadministered compound
Format: in vivo, rat (male Wistar)
CONDITION INFO: rat, iv, 60 min, + (dl)-vesamicol HCl 0.3 (Table 3) or 0.31 mg/kg; 60 min
Assignment: determine reported radioactivity in blood for the given compounds.

In: Item under review: OC(Cc1cccc([125I])c1)CN1CCC(c2ccccc2)CC1 (single isomer, unassigned; (-)) [(-)-[^125 l]12] . Reported radioactivity in blood?
Out: 0.14 % dose/g of tissue

In: Item under review: OC(CN1CCC(c2ccccc2)CC1)c1ccc([125I])cc1 (single isomer, unassigned; (-)) [(-)-[^125 l]13] . Reported radioactivity in blood?
Out: 0.08 % dose/g of tissue

In: Item under review: OC(CN1CCC(c2ccccc2)CC1)c1ccc([125I])cc1 (single isomer, unassigned; (+)) [(+)-[^125 l]13] . Reported radioactivity in blood?
Out: 0.03 % dose/g of tissue

In: Item under review: OC(Cc1ccc([125I])cc1)CN1CCC(c2ccccc2)CC1 (single isomer, unassigned; (+)) [(+)-4-[^125 l]HIPP] . Reported radioactivity in blood?
Out: 0.04 % dose/g of tissue

###

Assignment: determine reported tissue uptake at 1 h for the given compounds.
ASSAY INFO: Blocking experiments: inhibition of radiotracer accumulation in the rat by coadministered compound
Type: in vivo, rat (male Wistar)
CONDITION INFO: rat, heart, iv, rat, iv, 60 min, radiotracer only (control); read-out: radioactivity in heart
Express your answer in %ID/g, writing the number without its unit.

In: Item under review: OC(Cc1cccc([125I])c1)CN1CCC(c2ccccc2)CC1 (single isomer, unassigned; (+)) [(+)-[^125 l]12] . Reported tissue uptake at 1 h?
Out: 0.36

In: Item under review: OC(Cc1ccc([125I])cc1)CN1CCC(c2ccccc2)CC1 (single isomer, unassigned; (-)) [(-)-4-[^125 l]HIPP] . Reported tissue uptake at 1 h?
Out: 0.79

In: Item under review: OC(CN1CCC(c2ccccc2)CC1)c1ccc([125I])cc1 (single isomer, unassigned; (+)) [(+)-[^125 l]13] . Reported tissue uptake at 1 h?
Out: 0.22
